# credit: PubChem BioAssay (NCATS)

- ASSAY DETAILS: Quantitative High-Throughput drug screen in 47 multiple myeloma cell lines against the NCATS MIPE library collection: Karpas620_DSMZ cell viability assay (AID 1918959); also: nearly all actives have a fitted effect of over 30% in size
- EXPERIMENTAL CONTEXT: Karpas620 myeloma viability, CellTiter-Glo ATP luminescence, 48 h; series mostly up to 45.8 µM
- Source text: PI: Beverly A. Mock Ph.D. Laboratory of Cancer Biology and Genetics, Center for Cancer Research, National Cancer Institute, National Institute of Health, Bethesda, Maryland […] 5; Detector; 425V; Luminescence; Viewlux PerkinElmer. […] 1. […] Briefly, the corresponding myeloma cell lines were screened in 1,536-well plates with 500 cells, 5-uL per well for inhibition of cell viability (assessed by measuring ATP levels with CellTiterGlo). […]
Results filed as inconclusive are left out. The source made the active and inactive calls. Calls follow the shape of the dose curve; as a rule, active = well fitted cell-killing curve with a large enough effect; inconclusive = small, poorly fitted or top-dose-only effect, or effect the other way; inactive = no such curve, though single readings can be large or run the other way.
Labels: 1.0 (active), 0.0 (inactive)

compound=CNS(=O)(=O)CCc1ccc2[nH]cc(C3CCN(C)CC3)c2c1 class=0.0
compound=CCn1cc(C(=O)O)c(=O)c2cc(F)c(N3CCNCC3)cc21 class=0.0
compound=O=S(=O)(O)CCS class=0.0
compound=Nc1nc(=S)c2[nH]cnc2[nH]1 class=0.0
compound=COc1ccc2cc3[n+](cc2c1OC)CCc1cc2c(cc1-3)OCO2 class=1.0
compound="COc1ccccc1OCC(O)COC(N)=O (stereo not given)" class=0.0
compound=Cc1ccnc2c1NC(=O)c1cccnc1N2C1CC1 class=0.0
compound=COc1nc(N)nc2c1ncn2[C@@H]1O[C@H](CO)[C@@H](O)[C@@H]1O class=0.0
compound=Oc1c(Cl)cc(Cl)c2cccnc12 class=1.0
compound=Cc1nnc(C(=O)NC(C)(C)c2nc(C(=O)NCc3ccc(F)cc3)c(O)c(=O)n2C)o1 class=0.0
compound=COCCCOc1cc(C[C@@H](C[C@H](N)[C@@H](O)C[C@H](C(=O)NCC(C)(C)C(N)=O)C(C)C)C(C)C)ccc1OC class=0.0
compound=Cc1cccc(Nc2ccncc2S(=O)(=O)NC(=O)NC(C)C)c1 class=0.0
compound=CC1=CC(=O)c2ccccc2C1=O class=1.0
compound="O=C(O)CSCC(=O)NC1CCSC1=O (stereo not given)" class=0.0
compound="CCN1CCCC1CNC(=O)c1cc(S(N)(=O)=O)ccc1OC (stereo not given)" class=0.0
compound="NS(=O)(=O)c1cc2c(cc1Cl)NC(C(Cl)Cl)NS2(=O)=O (stereo not given)" class=0.0
compound=C[C@@H]1C[C@H]2[C@@H]3CCC4=CC(=O)C=C[C@]4(C)[C@@]3(Cl)[C@@H](O)C[C@]2(C)[C@@]1(OC(=O)c1ccco1)C(=O)CCl class=1.0
compound=CN1CCN(c2c(F)cc3c(=O)c(C(=O)O)cn4c3c2OCN4C)CC1 class=0.0
compound="CCC(C)(C)c1ccc(CC(C)CN2C[C@@H](C)O[C@@H](C)C2)cc1 (stereo not given in full)" class=0.0
compound=CCn1cc(C(=O)O)c(=O)c2cc(F)c(N3CCNCC3)nc21 class=0.0
compound=CNNCc1ccc(C(=O)NC(C)C)cc1 class=0.0
compound=CC(C)C[C@H](NC(=O)[C@H](CCc1ccccc1)NC(=O)CN1CCOCC1)C(=O)N[C@@H](Cc1ccccc1)C(=O)N[C@@H](CC(C)C)C(=O)[C@@]1(C)CO1 class=1.0
compound=OC(Cn1cncn1)(Cn1cncn1)c1ccc(F)cc1F class=0.0
compound="CCOCC(O)COc1ccc(NC(=O)CC[S+](C)C)cc1 (stereo not given)" class=0.0
compound=NNC(=O)c1ccncc1 class=0.0
compound=S=P(N1CC1)(N1CC1)N1CC1 class=0.0
compound=CCc1cc(C(N)=S)ccn1 class=0.0
compound=COc1cc(NS(=O)(=O)c2ccc(N)cc2)nc(OC)n1 class=0.0
compound=O=C(O)c1cccnc1 class=0.0
compound=COc1ncnc(NS(=O)(=O)c2ccc(N)cc2)c1OC class=0.0
